test system: XF498; experiment: NCI tumour cell line growth inhibition, 48 h
The source made the active and inactive calls. Rule as the data show it: active = GI50 up to about 1.1 µM and inactive = higher.
A correct response names exactly one class from active, inactive

Name the outcome recorded for "CCOC(=O)C(=O)Nc1ccc(Cl)cc1C" in the assay.
inactive

Name the outcome recorded for "Cn1ccnc1C(c1nccn1C)C(C)(C)[N+](=O)[O-]" in the assay.
inactive

Name the outcome recorded for CC(C)(C)N/N=C(\C(=O)Nc1cccc(Cl)c1)C1C(=O)Nc2ccccc2[S+]1[O-] (centres undefined) in the assay.
inactive

Name the outcome recorded for Cc1ccc(/N=C2\N=C(N3CC(C)OC(C)C3)c3ccccc32)cc1 (centres undefined) in the assay.
inactive

Name the outcome recorded for "CC(=O)Nc1ccccc1S(=O)(=O)c1ccccc1" in the assay.
inactive

Name the outcome recorded for "CC(C)(C)/N=C\N(C=C(c1ccccc1)c1ccccc1)C1CCCCC1" in the assay.
inactive

Name the outcome recorded for COC(=O)[C@@]12OC[C@]34[C@H]([C@@H](O)[C@@H]1O)[C@@]1(C)CC(=O)C(O)=C(C)[C@@H]1C[C@H]3OC(=O)[C@H](OC(=O)/C=C(\C)C(C)C)[C@@H]24 [BRUCEANTIN] in the assay.
active

Name the outcome recorded for "CCOC(=O)C(CCC(N)=O)(CCC(=O)OC)C(=O)OCC" in the assay.
inactive

Name the outcome recorded for COc1cc(C2c3cc4c(cc3[C@@H](Nc3ccccc3)C3COC(=O)[C@H]23)OCO4)cc(OC)c1O (some centres undefined) in the assay.
active

###

test system: SNB-19; assay: NCI tumour cell line growth inhibition, 48 h
Activity calls are given as the source filed them. Rule as the data show it: active = GI50 up to about 1.1 µM and inactive = higher.
reported-property: GI50

1. CCOC(=O)C(CCC(N)=O)(CCC(=O)OC)C(=O)OCC :: > 100 µM (inactive)
2. C#CCn1c(=O)c(C)cn(/C(=C/C(=O)OCC)C(=O)OCC)c1=O :: 14.6 µM (inactive)

Lookup result for CC(O)c1cc2c(s1)C(=O)c1c(C(C)O)csc1C2=O (stereo not given) ; measured GI50: 0.33 µM (active)

Lookup result for CN1C(=O)C2(Cc3cn(C45CC67SSC(CO)(C(=O)N6C4Nc4ccccc45)N(C)C7=O)c4ccccc34)SSC1(CO)C(=O)N2C (stereo not given) ; measured GI50: 0.271 µM (active)

Lookup result for "COC(=O)/C=C\n1ncc(=O)[nH]c1=O" ; measured GI50: > 100 µM (inactive)

###

test system: SF-539; assay: NCI tumour cell line growth inhibition, 48 h
Calls of active or inactive are those of the source. No stated cut-off is given here; in the data, active = GI50 up to about 1.1 µM and inactive = higher.
A correct response names exactly one class from active, inactive

Worked examples follow.
1) O=C1C=CC(=O)C(CNc2ccc(C(=O)OC34CC5CC(CC(C5)C3)C4)cc2)=C1 :: inactive
2) O=c1/c(=C/c2ccccc2[N+](=O)[O-])sc2nnc(-c3cccnc3)n12 :: inactive
3) CCN(CC)CCNc1ccc2ncn3c4cc(O)ccc4c(=O)c1c23 :: inactive
4) CC12CC(=O)C3C(C(=O)C1)C32C (configuration not stated) :: inactive
5) C/C(=C\C(C[C@](C)(O)C(O)CCC#C[Si](C)(C)C)S(=O)(=O)c1ccccc1)CC/C=C/CO[Si](C)(C)C(C)(C)C (some centres not stated) :: inactive

Name the outcome recorded for "Brc1cc(C2OCCCO2)ccc1OCc1ccccc1" in the assay.
inactive

Name the outcome recorded for "CCOC(=O)COc1ccc(OC)c2c1C(=O)CCC2" in the assay.
inactive

Name the outcome recorded for O=C1c2ccccc2-c2ccc(NC(=O)C3CCCCC3C(=O)O)cc21 (configuration not stated) in the assay.
inactive
